Measured selectivity ratio values are reported for all entries that follow.
System: EBOV Rec. Mayinga-Gluc (Ebola virus)
Experiment: in vitro
Conditions: human
Measured property: selectivity ratio

{"Record smiles": "N#C[C@@]1(c2ccc3c(N)ncnn23)O[C@H](CO)[C@@H](O)[C@H]1O", "Value": 16}
{"Record smiles": "CCC(CC)COC(=O)[C@H](C)N[P@](=O)(OC[C@H]1O[C@@](C#N)(c2ccc3c(N)ncnn23)[C@H](O)[C@@H]1O)Oc1ccccc1", "Value": 476}

----------
List of EC50 values.
Tested on: CCHF Rec. IbAr 10200
Experiment: organism not typed
Format: cell-based, Crimean Congo Hemorrhagic Fever virus
Settings: Huh-7

{"Molecule": "N#C[C@@]1(c2ccc3c(N)ncnn23)O[C@H](CO)[C@@H](O)[C@H]1O [Nuc]", "Test target": "CCHF Rec. IbAr 10200", "EC50": "> 50 µM"}
{"Molecule": "CCC(CC)COC(=O)[C@H](C)N[P@](=O)(OC[C@H]1O[C@@](C#N)(c2ccc3c(N)ncnn23)[C@H](O)[C@@H]1O)Oc1ccccc1 [GS-5734]", "Test target": "CCHF Rec. IbAr 10200", "EC50": "> 10 µM"}

----------
Test system: MV EZ vaccine (Measles virus)
Assay: in vitro
Settings: human
Measured property: selectivity ratio

{"Record smiles": "N#C[C@@]1(c2ccc3c(N)ncnn23)O[C@H](CO)[C@@H](O)[C@H]1O", "Value": 25}

----------
Test: Cell viability assay (CellTiter-Glo 2.0), HeLa
Conditions: human, uninfected HeLa cells

{"Compound": "CCC(CC)COC(=O)[C@H](C)N[P@](=O)(OC[C@H]1O[C@@](C#N)(c2ccc3c(N)ncnn23)[C@H](O)[C@@H]1O)Oc1ccccc1 [GS-5734]", "Comparison sign": "=", "CC50 at 72 h / µM": 8.3}
{"Compound": "N#C[C@@]1(c2ccc3c(N)ncnn23)O[C@H](CO)[C@@H](O)[C@H]1O [Nuc]", "Comparison sign": ">", "CC50 at 72 h / µM": 50}

----------
System: AHFV 200300001
Measured property: EC50

{"Record smiles": "CCC(CC)COC(=O)[C@H](C)N[P@](=O)(OC[C@H]1O[C@@](C#N)(c2ccc3c(N)ncnn23)[C@H](O)[C@@H]1O)Oc1ccccc1", "Test target": "AHFV 200300001", "Measured property": "EC50", "Value": "4.2 µM"}

----------
System: Pneumo
Experiment: Potency by virus family (Fig. 2), Pneumo
Assay type: cell-based
Conditions: read-out: potency class (EC50)
Measured property: EC50

{"Molecule": "CCC(CC)COC(=O)[C@H](C)N[P@](=O)(OC[C@H]1O[C@@](C#N)(c2ccc3c(N)ncnn23)[C@H](O)[C@@H]1O)Oc1ccccc1 [GS-5734]", "Value": "< 100 nM"}

----------
The reader will find pEC50 measurements below, all made with MV Rec. rMV^EZGFP(3).
pEC50: −log10 of the molar value.

{"Record smiles": "CCC(CC)COC(=O)[C@H](C)N[P@](=O)(OC[C@H]1O[C@@](C#N)(c2ccc3c(N)ncnn23)[C@H](O)[C@@H]1O)Oc1ccccc1", "Test target": "MV Rec. rMV^EZGFP(3)", "pEC50": 7.43}
{"Record smiles": "N#C[C@@]1(c2ccc3c(N)ncnn23)O[C@H](CO)[C@@H](O)[C@H]1O", "Test target": "MV Rec. rMV^EZGFP(3)", "pEC50": 6.00}

----------
Tested on: NiV Rec. M-GFP2AM (Nipah virus)
Assay: in vitro
Conditions: human
Below, each entry is listed alongside its reported selectivity ratio.
Measured property: selectivity ratio

{"Compound": "CCC(CC)COC(=O)[C@H](C)N[P@](=O)(OC[C@H]1O[C@@](C#N)(c2ccc3c(N)ncnn23)[C@H](O)[C@@H]1O)Oc1ccccc1 [GS-5734]", "Value": 286}
{"Compound": "N#C[C@@]1(c2ccc3c(N)ncnn23)O[C@H](CO)[C@@H](O)[C@H]1O [Nuc]", "Value": 22}

----------
Test: Cell viability assay (CellTiter-Glo 2.0), A549
Settings: human, uninfected A549 cells

{"Record smiles": "CCC(CC)COC(=O)[C@H](C)N[P@](=O)(OC[C@H]1O[C@@](C#N)(c2ccc3c(N)ncnn23)[C@H](O)[C@@H]1O)Oc1ccccc1", "CC50 at 72 h": "> 10 µM"}

----------
Test system: ANDV Chile 9717869
Experiment: microbe, parasite or virus in culture
Settings: Orthohantavirus andesense, Huh-7
pEC50: −log10 of the molar value.
Measured property: pEC50

{"Compound": "CCC(CC)COC(=O)[C@H](C)N[P@](=O)(OC[C@H]1O[C@@](C#N)(c2ccc3c(N)ncnn23)[C@H](O)[C@@H]1O)Oc1ccccc1 [GS-5734]", "Value": 5.16}

----------
Test system: EBOV Rec. Mayinga-GFP
Test: microbe, parasite or virus in culture
Conditions: Zaire ebolavirus, Huh-7
Measured property: EC50

{"Record smiles": "CCC(CC)COC(=O)[C@H](C)N[P@](=O)(OC[C@H]1O[C@@](C#N)(c2ccc3c(N)ncnn23)[C@H](O)[C@@H]1O)Oc1ccccc1", "Test target": "EBOV Rec. Mayinga-GFP", "Measured property": "EC50", "Value": "66 nM"}
{"Record smiles": "N#C[C@@]1(c2ccc3c(N)ncnn23)O[C@H](CO)[C@@H](O)[C@H]1O", "Test target": "EBOV Rec. Mayinga-GFP", "Measured property": "EC50", "Value": "1610 nM"}

----------
Test system: HeV 1996 (Hendra virus)
Assay: in vitro
Details: human

{"Record smiles": "N#C[C@@]1(c2ccc3c(N)ncnn23)O[C@H](CO)[C@@H](O)[C@H]1O", "selectivity ratio": 50}

----------
Tested on: NiV M-1999 (Nipah virus)
Experiment: in vitro
Conditions: human
# maps each entry to its selectivity ratio
Measured property: selectivity ratio

{"Compound": "CCC(CC)COC(=O)[C@H](C)N[P@](=O)(OC[C@H]1O[C@@](C#N)(c2ccc3c(N)ncnn23)[C@H](O)[C@@H]1O)Oc1ccccc1 [GS-5734]", "Test target": "NiV M-1999 (Nipah virus)", "Measured property": "selectivity ratio", "Value": 180}
{"Compound": "N#C[C@@]1(c2ccc3c(N)ncnn23)O[C@H](CO)[C@@H](O)[C@H]1O [Nuc]", "Test target": "NiV M-1999 (Nipah virus)", "Measured property": "selectivity ratio", "Value": 102}

----------
Tested on: HeV 1996
pEC50: −log10 of the molar value.

{"Record smiles": "CCC(CC)COC(=O)[C@H](C)N[P@](=O)(OC[C@H]1O[C@@](C#N)(c2ccc3c(N)ncnn23)[C@H](O)[C@@H]1O)Oc1ccccc1", "pEC50": 7.26}

----------
Tested on: hMPV Rec. CAN97-83-GFP
Assay: microbe, parasite or virus in culture
Format: cell-based
Conditions: human metapneumovirus, Vero

{"Record smiles": "N#C[C@@]1(c2ccc3c(N)ncnn23)O[C@H](CO)[C@@H](O)[C@H]1O", "EC50": "730 nM"}

----------
Tested on: hPIV3 Rec. JS-GFP (parainfluenza type 3 virus)
Assay: in vitro
Details: human
The entries below are paired with their reported selectivity ratio.

{"Record smiles": "CCC(CC)COC(=O)[C@H](C)N[P@](=O)(OC[C@H]1O[C@@](C#N)(c2ccc3c(N)ncnn23)[C@H](O)[C@@H]1O)Oc1ccccc1", "selectivity ratio": 461}
{"Record smiles": "N#C[C@@]1(c2ccc3c(N)ncnn23)O[C@H](CO)[C@@H](O)[C@H]1O", "selectivity ratio": 98}

----------
Test system: recombinant reporter-expressing NiV, EBOV, and Marburg viruses (MARV)
Assay: microbe, parasite or virus in culture
Format: cell-based
Conditions: Zaire ebolavirus, read-out: EC50 values (range over viruses)
Measured property: EC50

{"Record smiles": "N#C[C@@]1(c2ccc3c(N)ncnn23)O[C@H](CO)[C@@H](O)[C@H]1O", "Test target": "recombinant reporter-expressing NiV, EBOV, and Marburg viruses (MARV)", "Value": "1000 to 3000 nM"}

----------
Tested on: KFDV P9605 (Kyasanur Forest Disease virus)
Experiment: in vitro
Settings: human
Measured property: selectivity ratio

{"Molecule": "CCC(CC)COC(=O)[C@H](C)N[P@](=O)(OC[C@H]1O[C@@](C#N)(c2ccc3c(N)ncnn23)[C@H](O)[C@@H]1O)Oc1ccccc1 [GS-5734]", "Value": 5.6}

----------
System: OHFV Bogoluvovska (Omsk Hemorrhagic Fever virus)
Assay: in vitro
Conditions: human
Measured property: selectivity ratio

{"Record smiles": "CCC(CC)COC(=O)[C@H](C)N[P@](=O)(OC[C@H]1O[C@@](C#N)(c2ccc3c(N)ncnn23)[C@H](O)[C@@H]1O)Oc1ccccc1", "Value": 8.3}
